Assay: in vivo
Details: mouse, po
# selectivity ratio per entry
Reply briefly: the number, and no unit.

Consider the reported selectivity ratio for these molecules:
O=C(O)Cc1c(-c2ccccc2)nn(-c2ccccc2)c1Cl    1200
O=C(O)Cc1c(-c2ccc(Cl)cc2)nn(-c2ccccc2)c1Cl    353

Shifting focus to the molecule that follows.
Ask: Would you kindly share the measured selectivity ratio for "COc1ccc(-c2nn(-c3ccccc3)c(Cl)c2CC(=O)O)cc1" ?
Result: 91.7

* * *

Assay: in vivo
Conditions: mouse, po
# LD50 at 240 h per entry
Reply with just the number (in mg/kg).

Consider the reported LD50 at 240 h for these compounds:
O=C(O)Cc1c(-c2ccccc2)nn(-c2ccccc2)c1Cl    1200
O=C(O)Cc1c(-c2ccc(Cl)cc2)nn(-c2ccccc2)c1Cl    530

Ask: Would you kindly share the measured LD50 at 240 h for "COc1ccc(-c2nn(-c3ccccc3)c(Cl)c2CC(=O)O)cc1" ?
Result: 1100
